Tested on: female house flies (resistant)
testMethodNotes: Level II topical test, house flies
Type: in vivo, Musca domestica Linnaeus
conditionSummary: Musca domestica, topical, HF (female, resistant), one microgram topically per insect, read-out: % Kill
reportedProperty: mortality at 0.001 mg (%)
The reply should contain only the number, in %.

Please provide the recorded mortality at 0.001 mg for CCOP(=O)(OCC)N(CC)SN(C)C(=O)Oc1cccc2c1OC(C)(C)C2 , tested on female house flies (resistant).
33

Please provide the recorded mortality at 0.001 mg for CCOP(=O)(OCC)N(C)SN(C)C(=O)Oc1cccc2c1OC(C)(C)C2 , tested on female house flies (resistant).
20

Please provide the recorded mortality at 0.001 mg for CCCOP(=O)(OCCC)N(CCC)SN(C)C(=O)Oc1cccc2c1OC(C)(C)C2 , tested on female house flies (resistant).
40

Please provide the recorded mortality at 0.001 mg for CCCOP(=O)(OCCC)N(C)SN(C)C(=O)Oc1cccc2c1OC(C)(C)C2 , tested on female house flies (resistant).
40

Please provide the recorded mortality at 0.001 mg for CC(C)OP(=O)(OC(C)C)N(C)SN(C)C(=O)Oc1cccc2c1OC(C)(C)C2 , tested on female house flies (resistant).
27

Please provide the recorded mortality at 0.001 mg for CCN(SN(C)C(=O)Oc1cccc2c1OC(C)(C)C2)P(=O)(OC)OC , tested on female house flies (resistant).
38
